- Test system: Candida albicans
- protocolDetails: Antifungal activity against Candida albicans at 50 ug/ml after 48 to 72 hr by agar diffusion cup-plate method
- Assay type: functional
- condition: read-out: DIZ
Parameter zone of inhibition at 50 µg/mL: see the listing below.

Worked set:
Cc1cc(C)n(-c2ccc([N+](=O)[O-])cc2[N+](=O)[O-])n1 : 14.3 mm
O=[N+]([O-])c1ccc(NNC(=S)Nc2ccccc2)c([N+](=O)[O-])c1 : 11.5 mm
NC1=NN(c2ccc([N+](=O)[O-])cc2[N+](=O)[O-])C(=O)C1 : 12.3 mm

Now look at this one.
If you can, please state the reported zone of inhibition at 50 µg/mL value of Clc1ccccc1C(c1ccccc1)(c1ccccc1)n1ccnc1 .
28.4 mm

The measurements presented in this section are drawn from ChEMBL document CHEMBL3045717.
